Test: Specific activity of purified CHI, absorbance decrease at 384 nm, 4-O-methyl butein; note: unit not given here
Assay type: biochemical
Conditions: purified CHI in 50 mM PBS, 100 μM substrate, 25° C.
measurement_name: Specific activity, 4-O-methyl butein
No unit in the answer, please; the number alone is enough.

## Input Dear colleague, I am looking for the recorded Specific activity, 4-O-methyl butein of the following molecule: CHI12: Chalcone isomerase from Holophaga foetida, access no. WP_005036737.1 (protein, listed as Holophaga foetida) TVEFCPMRSLIYVGLSKEKYRHLLQNWLYRIHIPDSISQFGPYVTKYAFYNALPVPPEGERFGTIKMQLTEHYWQCNPFQQAVAVKTFKEVFPIDVLRWQGNMPDESDGAVELEGDEARSAKGGQGAKPFIFAFVPLWWEEDIKGKMRTIADGPNYRWQFVMKYPEGVSQEQGDKWFLEEVAPAFAAMPEVNRILSSKIIQNVNGCSFNRVVEMWFDGPDEWYAAAVTKAAALPKPTWAKQDKFPFLASDYEFASVFLTDYATSDNLSQYRGYITLR
## Output 0.2
